Origin of the recorded values: paper PMC9352680

Molecular target: T1, PUF4 RNA-binding domain (Saccharomyces cerevisiae, UniProt P25339 537-888)
T1 sequence: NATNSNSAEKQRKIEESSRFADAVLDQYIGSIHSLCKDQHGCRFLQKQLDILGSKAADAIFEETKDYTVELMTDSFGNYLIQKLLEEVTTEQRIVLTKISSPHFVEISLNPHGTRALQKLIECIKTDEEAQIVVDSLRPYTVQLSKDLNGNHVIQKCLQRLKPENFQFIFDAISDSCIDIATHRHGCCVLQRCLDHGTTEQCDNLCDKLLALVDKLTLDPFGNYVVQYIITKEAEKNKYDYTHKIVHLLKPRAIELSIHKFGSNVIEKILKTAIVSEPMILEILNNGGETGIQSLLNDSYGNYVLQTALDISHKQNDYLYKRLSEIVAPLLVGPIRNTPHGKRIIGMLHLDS
Assay: Mg; RNA-MaP; 20 mM Na-HEPES pH 7.4, 30 mM KOAc, 0.75 mM MgCl2, 0.1% Tween-20, 5% glycerol, 0.1 mg/mL BSA, 2 mM DTT; 25 C; 0.0125-409.6 nM protein
Settings: tags: N-His6-TEV cleaved; C-SNAP kept, Cy3B-labelled; label: tethered on chip by stalled RNA polymerase
Measured Kd of individual entries
// units = nM; emit number, no label

// solved cases for Kd follow
# Binder, Kd, nM
measured = [
    ("UCUCUUUCUGUAUAUUAAAUCUCUU (ssRNA) [Id_ii_S1_P4E.2_K4.1_C4.2_[C-2T]_[T-1C]_H4.1_A4.1_F4.1_T4.2_[G10A]_[T11A]]", 1.06),
    ("UCUCUUUGUACGGUAUCUCUU (ssRNA) [Ic_S1_P4E.1_K4.1_C4.1_H4.1_A4.1_[T5C]_[A6G]_[T7G]_F4.1_T4.1]", 13.4),
    ("Ic_S2_P4E.1_K4.1_C4.1_H4.1_A4.1_[T5C]_[A6T]_[T7G]_F4.1_T4.1 (ssRNA) RNA: UUUGAUUAAUAUGAUAUCGUUCUUUCUUGUACUGUAUUCUUUCUCGAUAUCAUAUUAAUCUUU", 2.61),
    ("Ic_S4_P5E.1_K5.1_C5.1_H5.1_A5.1_[T6G]_[A7C]_F5.1_[T8C]_[T9A]_[A10T]_T5.1 (ssRNA) RNA: UUUGACAACUGAUCGUUCUUUCUUGUAUGCCAUUUCUUUCUCGAUCAGUUGUCUUU", 56.4),
]

Quick one: Kd for Ib_S2_P4E.1_K4.1_C4.1_H4.1_[G2A]_[A4T]_A4.1_F4.1_T4.1 (ssRNA) RNA: UUUGAUUAAUAUGAUAUCGUUCUUUCUUAUUUAUUAUUCUUUCUCGAUAUCAUAUUAAUCUUU ?
852

// query: Ic_S4_P5E.1_K5.1_C5.1_H5.1_A5.1_[T5C]_[T6G]_[A7T]_F5.1_[T9A]_T5.1 (ssRNA) RNA: UUUGACAACUGAUCGUUCUUUCUUGUACGUUAAUUCUUUCUCGAUCAGUUGUCUUU
4.22

// query: Ie_S4_P5E.1_K5.1_C5.1_H5.1_A5.1_[+5CCCT]_F5.1_T5.1 (ssRNA) RNA: UUUGACAACUGAUCGUUCUUUCUUGUAUCCCUUAUUAUUCUUUCUCGAUCAGUUGUCUUU
16

// query: UCUCUUUGUACUACUCUCUU (ssRNA) [Ic_S1_P3E.1_K3.1_C3.1_H3.1_A3.1_[T5C]_[A6T]_F3.1_[T7A]_[A8C]_T3.1]
349

// query: UCUCUUUAUGUAUAUUAAAUCUCUU (ssRNA) [Id_ii_S1_P4E.2_K4.1_C4.2_[C-2T]_[T-1A]_H4.1_A4.1_F4.1_T4.2_[G10A]_[T11A]]
1.94

// query: UCUCUUUGUAUUAUAUCUCUU (ssRNA) [Ib_S1_P4E.1_K4.1_C4.1_H4.1_A4.1_[A6T]_[T7A]_F4.1_T4.1]
2.13

// query: Ib_S4_P5E.1_K5.1_C5.1_H5.1_A5.1_[T5A]_[A7T]_F5.1_T5.1 (ssRNA) RNA: UUUGACAACUGAUCGUUCUUUCUUGUAAUUUUAUUCUUUCUCGAUCAGUUGUCUUU
5.23

// query: UCUCUUUGUAAAUAGUCUCUU (ssRNA) [Ic_S1_P4E.1_K4.1_C4.1_H4.1_A4.1_[T5A]_F4.1_[T8A]_[A9G]_T4.1]
11.5

// query: Ib_S4_P4E.1_K4.1_C4.1_H4.1_A4.1_[T7A]_F4.1_[T8C]_T4.1 (ssRNA) RNA: UUUGACAACUGAUCGUUCUUUCUUGUAUAACAUUCUUUCUCGAUCAGUUGUCUUU
19.6
